Attribute: log10 of TGI
System: SF-539 CNS
Protocol: NCI tumour cell line growth inhibition, 48 h
Metric: log10 of TGI (log10 of the value in µM)

Compound	Data Value
O=C1NC(=NC2CCCCC2)C2(CCN(CCCC3(c4ccc(F)cc4)OCCO3)CC2)N1c1ccccc1	1.49
CC[C@](C)(O)C(=O)O[C@H]1C(=O)O[C@@H]2C[C@H]3C(C)=C[C@H](O)[C@@H](O)[C@]3(C)[C@H]3[C@@]4(O)OC[C@]32[C@@H]1[C@@H](C)[C@H]4O	1.67
CN1CCN(CCCCN2c3ccccc3Sc3ccc(N=[N+]=[N-])cc32)CC1	1.31
COc1cccc2c(=O)c3c(sc12)c(NCCN(C)C)nc1ccccc13	0.48
COc1ccc(/C=C2\CN(C)CC3C2=NC(=S)NC3c2ccc(OC)cc2)cc1 (centres undefined)	1.77
CC1=NN(C(=O)c2ccccc2O)C(c2ccccc2Cl)C1C(=O)Nc1ccccc1 (centres undefined)	0.75
COc1ccc2nc(C)cc(Nc3ccccc3O)c2c1	1.63
CS(=O)(=O)Nc1cc(-c2ccc3ncnc(Nc4ccc5c(cnn5Cc5ccccc5F)c4)c3c2)cnc1Cl	0.69
Cc1cc(-c2nc3cc(O)ccc3s2)ccc1N	1.69
O=C1c2ccccc2-c2c1c(-c1ccccc1)c1n2C2(C(=O)c3ccccc3C2=O)C2C(=O)N(c3ccccc3)C(=O)C12 (centres undefined)	1.57
C[CH2][Sn]([CH2]C)([O]C(=O)c1cccc(F)c1)[O][Sn]([CH2]C)([CH2]C)[O]C(=O)c1cccc(F)c1	1.49
N#C[S-].[Au+].c1ccc(CN2[CH-]N(Cc3ccccc3)C(c3ccccc3)=C2c2ccccc2)cc1	0.33
OC(CNc1ccnc2cc(Cl)ccc12)CNC1CCCCC1 (centres undefined)	0.53
O=C(CCCCCCC(=O)Nc1ccc2c(c1)/C(=C/c1ccc[nH]1)C(=O)N2)NO	1.20
COc1cc2cccc(NC(=O)c3cc(OC)c(OC)c(OC)c3Br)c2cc1OC	1.67
COCCNC(=O)c1ccc(-c2nc3ccc4[nH]ncc4c3c3c2CCCC3)cc1	0.90

---

The following molecules are listed with their measured GI50 values.
System: SN12C renal
Protocol: NCI tumour cell line growth inhibition, 48 h

Molecule	Assayed System	GI50
N#Cc1nc2cc(F)c(F)cc2nc1-c1ccc(Cl)cc1	SN12C renal	6.83 µM
CC1/C(=N/Nc2ccc([N+](=O)[O-])cc2)CC2C3(C)CCC2(C(C)C(=O)O)C(=O)C13 (centres undefined)	SN12C renal	60.9 µM
O=C(/C=C/c1ccc(C(F)(F)F)cc1)c1ccc(Nc2nc(NCCO)nc(N3CCOCC3)n2)cc1	SN12C renal	2.22 µM
Clc1ccc2c(c1)-c1ccccc1C1=NCCN12	SN12C renal	2.41 µM
CC(C)C[C@@H]1NC(=O)[C@@H]2CCCN2C(=O)[C@@H]2CCCN2C(=O)[C@H](CC(C)C)NC(=O)[C@H](CO)NC(=O)[C@H](CCCCN)NC(=O)[C@H]([C@H](C)O)NC(=O)[C@@H]2CCCC[C@@H](NC1=O)C(=O)N[C@@H](Cc1ccccc1)C(=O)N1CCC[C@H]1C(=O)N[C@@H](CC(=O)O)C(=O)NCC(=O)N[C@@H](CCCN=C(N)N)C(=O)N2	SN12C renal	> 50 µM
COc1ccc2nc(C)cc(Nc3ccccc3O)c2c1	SN12C renal	38.2 µM
OC(CNC1CCCC1)Cn1c2ccccc2c2ccccc21 (centres undefined)	SN12C renal	44.2 µM
COc1cc(/C=C/C(=O)c2c(C)n([O-])c3ccc(Cl)cc3[n+]2=O)cc(OC)c1OC	SN12C renal	67.6 µM
C[CH2][Sn]([CH2]C)([O]C(=O)c1cccc(F)c1)[O][Sn]([CH2]C)([CH2]C)[O]C(=O)c1cccc(F)c1	SN12C renal	17 µM
